FYI, the data here is from patent US6759522B2.

# Target of assay: UniProtKB A0AAA9TD94
# Sequence (A0AAA9TD94 1-1441): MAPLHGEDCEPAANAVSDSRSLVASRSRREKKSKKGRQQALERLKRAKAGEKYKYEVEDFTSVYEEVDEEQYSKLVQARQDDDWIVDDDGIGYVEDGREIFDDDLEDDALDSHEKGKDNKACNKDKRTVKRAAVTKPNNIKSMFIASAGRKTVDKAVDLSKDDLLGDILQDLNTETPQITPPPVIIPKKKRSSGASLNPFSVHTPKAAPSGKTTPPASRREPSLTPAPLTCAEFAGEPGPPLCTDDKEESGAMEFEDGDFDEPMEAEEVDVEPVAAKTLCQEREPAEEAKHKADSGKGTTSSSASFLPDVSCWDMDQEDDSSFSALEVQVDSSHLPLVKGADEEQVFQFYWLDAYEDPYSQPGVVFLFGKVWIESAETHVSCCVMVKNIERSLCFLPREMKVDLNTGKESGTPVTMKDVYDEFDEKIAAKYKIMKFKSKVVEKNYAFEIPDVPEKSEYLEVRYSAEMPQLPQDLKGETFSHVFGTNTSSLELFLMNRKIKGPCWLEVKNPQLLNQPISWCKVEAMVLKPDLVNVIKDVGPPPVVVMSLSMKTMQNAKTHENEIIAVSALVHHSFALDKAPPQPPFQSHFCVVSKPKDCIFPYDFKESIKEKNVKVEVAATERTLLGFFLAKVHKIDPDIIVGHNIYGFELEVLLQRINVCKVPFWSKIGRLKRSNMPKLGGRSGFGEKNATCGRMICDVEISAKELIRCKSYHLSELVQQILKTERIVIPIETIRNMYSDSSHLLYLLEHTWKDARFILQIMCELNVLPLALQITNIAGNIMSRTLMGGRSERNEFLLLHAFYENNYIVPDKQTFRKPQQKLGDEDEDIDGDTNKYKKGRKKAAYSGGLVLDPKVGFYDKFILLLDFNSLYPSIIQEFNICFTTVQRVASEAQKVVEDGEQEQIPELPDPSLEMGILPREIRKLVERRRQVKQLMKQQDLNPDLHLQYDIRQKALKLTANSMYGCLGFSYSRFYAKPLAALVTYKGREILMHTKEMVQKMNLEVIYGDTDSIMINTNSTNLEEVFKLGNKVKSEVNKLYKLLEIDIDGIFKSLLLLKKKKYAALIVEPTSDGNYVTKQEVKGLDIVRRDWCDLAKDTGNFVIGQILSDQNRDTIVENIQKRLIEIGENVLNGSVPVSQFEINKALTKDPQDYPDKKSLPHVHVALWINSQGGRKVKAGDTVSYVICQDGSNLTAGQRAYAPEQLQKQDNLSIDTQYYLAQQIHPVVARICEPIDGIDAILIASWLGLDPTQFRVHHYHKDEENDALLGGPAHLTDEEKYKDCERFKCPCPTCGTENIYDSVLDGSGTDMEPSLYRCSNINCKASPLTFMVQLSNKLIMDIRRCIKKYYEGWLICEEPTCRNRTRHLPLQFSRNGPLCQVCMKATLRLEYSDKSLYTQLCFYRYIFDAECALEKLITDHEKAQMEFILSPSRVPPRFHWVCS
Where a name gives a salt, the structure may show the parent alone.
Property: IC50

Molecule	Property	Result
CCCCCCCCCCCCCCCCCC(=O)OCC(O)CO[C@H]1O[C@H](CS(=O)(=O)[O-])[C@@H](O)[C@H](O)[C@@H]1O.[Na+] (stereo partly shown) [SRAG3, sodium salt]	IC50	3.3 µM
CCCCCCCCCCCCCCCCCC(=O)OCC(CO[C@H]1O[C@H](CS(=O)(=O)O)[C@@H](O)[C@H](O)[C@@H]1O)OC(=O)CCCCCCCCCCCCCCCCC (stereo partly shown) [SRAG4, sodium salt]	IC50	0.115 µM
CCCCCCCCCCCCCCCC(=O)OCC(O)CO[C@H]1O[C@H](CS(=O)(=O)[O-])[C@@H](O)[C@H](O)[C@@H]1O.[Na+] (stereo partly shown) [SRAG2, sodium salt]	IC50	5.7 µM
CCCCCCCCCCCCCC(=O)OCC(O)CO[C@H]1O[C@H](CS(=O)(=O)[O-])[C@@H](O)[C@H](O)[C@@H]1O.[Na+] (stereo partly shown) [SRAG1, sodium salt]	IC50	23.6 µM
